Hey, just so you know, these numbers are from patent USRE47150.

Biological target: T1, human tissue factor pathway inhibitor (TFPI) (human, UniProt P10646 29-304, limits assumed)
T1 construct: bought; also called hTFPI; human TFPI
T1 sequence (looked up): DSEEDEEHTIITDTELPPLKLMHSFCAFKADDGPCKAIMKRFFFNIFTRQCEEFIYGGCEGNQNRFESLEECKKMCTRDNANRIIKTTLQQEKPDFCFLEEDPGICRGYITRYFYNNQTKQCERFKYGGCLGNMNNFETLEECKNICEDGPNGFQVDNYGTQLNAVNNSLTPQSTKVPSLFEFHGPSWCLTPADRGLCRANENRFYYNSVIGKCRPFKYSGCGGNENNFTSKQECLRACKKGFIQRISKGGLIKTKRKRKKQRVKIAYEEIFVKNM
Assay: SPR, TFPI immobilized
measurement kind: kon (M⁻¹ s⁻¹)
Give the value in M⁻¹ s⁻¹ but do not write M⁻¹ s⁻¹ after it.

Looking up 2A8-g200 (HC Q1E+R30S+S35D+S55R+S56G+K99L/LC D1S+I2Y+A13S+S21T+R28P+N29K+Y48F+N51V+E80M+S89A+D91W+D92S+G93S+V94T) (Fab, V domains shown) VH: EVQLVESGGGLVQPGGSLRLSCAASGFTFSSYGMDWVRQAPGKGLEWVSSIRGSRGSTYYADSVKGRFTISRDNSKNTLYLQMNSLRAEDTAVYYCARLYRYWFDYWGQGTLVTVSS VL: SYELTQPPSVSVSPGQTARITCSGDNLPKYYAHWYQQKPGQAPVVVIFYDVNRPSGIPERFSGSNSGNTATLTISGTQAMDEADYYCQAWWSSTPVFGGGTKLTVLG , I see its kon listed as 617000
